- SUBJECT_OF_TEST: Sigma non-opioid intracellular receptor 1 (Homo sapiens)
- Sequence (Q99720 whole entry): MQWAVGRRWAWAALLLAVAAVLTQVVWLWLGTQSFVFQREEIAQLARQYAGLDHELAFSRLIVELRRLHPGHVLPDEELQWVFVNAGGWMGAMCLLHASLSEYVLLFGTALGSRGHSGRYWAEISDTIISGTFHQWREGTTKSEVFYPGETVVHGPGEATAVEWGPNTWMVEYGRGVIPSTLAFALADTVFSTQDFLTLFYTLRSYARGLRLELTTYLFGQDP
- ASSAY_OVERVIEW: Inhibitory activity towards Sigma opioid receptor type 1
REPORTED_METRIC: IC50 (nM)

{"COMPOUND": "O=C1CNC(=O)N1", "REPORTED_METRIC": "IC50", "RECORDED_MEASUREMENT": 62}
{"COMPOUND": "c1cc2c(cn1)CCCC2 [5,6,7,8-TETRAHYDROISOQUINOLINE]", "REPORTED_METRIC": "IC50", "RECORDED_MEASUREMENT": 56}

* * *

Values of IC50 reported for Kappa-type opioid receptor (Cavia porcellus) (UniProt P41144) appear below.

{"COMPOUND": "CC(C)C[C@@H]1CN2C(=NC[C@H]2C2CCCCC2)N1C(C)C12CC3CC(CC(C3)C1)C2 (stereo partly specified)", "VALUE_QUALIFIER": "=", "IC50 (nM)": 1750}
{"COMPOUND": "CC(C)C[C@@H]1CN2C(=NC[C@H]2C2CCCCC2)N1CC1CCC(C)CC1 (stereo partly specified)", "VALUE_QUALIFIER": "=", "IC50 (nM)": 738}
{"COMPOUND": "C1CCC([C@H]2CN3C(=NC[C@@H]3C3CCCCC3)N2CCC2CC3CCC2C3)CC1 (stereo partly specified)", "VALUE_QUALIFIER": "=", "IC50 (nM)": 560}
{"COMPOUND": "CC(N1C2=NC[C@@H](C3CCCCC3)N2C[C@@H]1C1CCCCC1)C12CC3CC(CC(C3)C1)C2 (stereo partly specified)", "VALUE_QUALIFIER": ">", "IC50 (nM)": 10000}
{"COMPOUND": "CC(C)C[C@@H]1CN2C(=NC[C@@H]2C2CCCCC2)N1CC1CCC(C)CC1 (stereo partly specified)", "VALUE_QUALIFIER": "=", "IC50 (nM)": 999}
{"COMPOUND": "CC(N1C2=NC[C@H](C3CCCCC3)N2C[C@@H]1C1CCCCC1)C12CC3CC(CC(C3)C1)C2 (stereo partly specified)", "VALUE_QUALIFIER": "=", "IC50 (nM)": 1490}
